Experiment: Binding affinity to AMPK (unknown origin) assessed as inhibition constant
Parameters: species or system Homo sapiens
measured_attribute: pKi
As a rule, pKi stands for the negative log10 of the concentration, concentration in M.

I have this compound here, c1cc(-c2cnn3cc(-c4ccc(OCCN5CCCCC5)cc4)cnc23)ccn1 , and I need its recorded pKi.
6.96

----------
Target: Mitogen-activated protein kinase 3 (Homo sapiens)
Sequence (P27361 whole entry): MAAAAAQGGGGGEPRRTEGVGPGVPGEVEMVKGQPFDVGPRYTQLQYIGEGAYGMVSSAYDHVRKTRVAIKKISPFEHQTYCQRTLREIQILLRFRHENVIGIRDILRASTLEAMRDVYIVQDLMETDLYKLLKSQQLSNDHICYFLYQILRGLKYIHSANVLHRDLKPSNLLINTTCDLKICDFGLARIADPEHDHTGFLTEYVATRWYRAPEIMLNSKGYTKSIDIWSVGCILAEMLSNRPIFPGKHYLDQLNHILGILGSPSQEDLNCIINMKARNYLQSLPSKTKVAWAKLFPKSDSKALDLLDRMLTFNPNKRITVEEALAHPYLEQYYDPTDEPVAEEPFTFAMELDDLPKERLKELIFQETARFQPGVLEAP
Assay: Inhibition of ERK1 (unknown origin)
measured_attribute: IC50

# get_value(readout='IC50', item= COc1ccc([C@H]2OC[C@H]3[C@@H]2CO[C@@H]3c2cc(OC)c(OC)c(OC)c2)cc1OC )
87 nM

----------
Molecular target: Phosphatidylinositol 4,5-bisphosphate 3-kinase catalytic subunit gamma isoform (Homo sapiens)
Sequence (P48736 whole entry, canonical isoform): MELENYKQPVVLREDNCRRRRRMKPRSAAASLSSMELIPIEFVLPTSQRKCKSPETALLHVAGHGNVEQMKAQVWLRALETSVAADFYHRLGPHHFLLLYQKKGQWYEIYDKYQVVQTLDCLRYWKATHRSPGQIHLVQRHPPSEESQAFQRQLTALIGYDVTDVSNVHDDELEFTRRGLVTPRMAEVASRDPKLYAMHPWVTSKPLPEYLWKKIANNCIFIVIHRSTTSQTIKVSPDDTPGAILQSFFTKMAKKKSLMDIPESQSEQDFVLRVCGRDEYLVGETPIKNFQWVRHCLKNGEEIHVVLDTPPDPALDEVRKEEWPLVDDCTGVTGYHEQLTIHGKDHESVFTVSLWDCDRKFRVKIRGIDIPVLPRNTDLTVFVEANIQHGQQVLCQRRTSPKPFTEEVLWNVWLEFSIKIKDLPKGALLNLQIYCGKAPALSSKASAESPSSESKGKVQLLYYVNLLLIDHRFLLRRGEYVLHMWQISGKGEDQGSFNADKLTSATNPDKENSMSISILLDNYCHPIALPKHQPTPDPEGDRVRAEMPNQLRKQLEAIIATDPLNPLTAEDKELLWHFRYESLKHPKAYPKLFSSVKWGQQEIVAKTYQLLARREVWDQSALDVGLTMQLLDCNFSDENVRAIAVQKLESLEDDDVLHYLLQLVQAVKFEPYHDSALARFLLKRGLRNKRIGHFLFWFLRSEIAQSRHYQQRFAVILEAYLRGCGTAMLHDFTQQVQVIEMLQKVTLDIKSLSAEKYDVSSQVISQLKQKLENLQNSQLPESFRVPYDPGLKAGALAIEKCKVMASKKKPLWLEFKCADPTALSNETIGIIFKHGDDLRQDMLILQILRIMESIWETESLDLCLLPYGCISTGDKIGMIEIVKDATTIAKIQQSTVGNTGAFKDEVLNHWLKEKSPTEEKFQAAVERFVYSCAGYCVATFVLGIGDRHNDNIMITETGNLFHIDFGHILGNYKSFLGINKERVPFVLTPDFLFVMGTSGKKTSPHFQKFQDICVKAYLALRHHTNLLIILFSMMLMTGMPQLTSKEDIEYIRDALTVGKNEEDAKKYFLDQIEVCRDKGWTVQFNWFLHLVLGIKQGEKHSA
Experiment: Inhibition of PI3K p120gamma (unknown origin)
Entries and their pIC50 values follow.
// pIC50: -log10(molar conc.)

C=CCN(/C=C1/C(=O)O[C@H](COC)[C@@]2(C)C1=C(O)C(=O)C1=C2[C@H](OC(C)=O)C[C@]2(C)C(=O)CC[C@@H]12)CC=C [SONOLISIB] | 9.00

Lab note: next molecule to report on.
For Cc1nc(-c2cn3c(n2)-c2ccc(-c4cnn(C(C)(C)C(N)=O)c4)cc2OCC3)n(C(C)C)n1 [TASELISIB] , what is its reported pIC50?
9.04
